From: patent US6521594

Below, each of the binders is paired with its reported IC50 value.
# TEST TARGET: T1, Platelet glycoprotein IIb/IIIa (human, UniProt P08514 32-1039; P05106 27-788)
# T1 construct: mature; on human platelets in the aggregation assays (functional rows); also called GP IIb/IIIa; GPIIbIIIa
# PROTOCOL NOTES: competition, ELISA or liposome assay
Starred links: 1 amine or outer side, 2 acyl side, 3 side chain; linkers in the order of their positions; H or OH if unused. Positions of bridges follow the written chain, without caps; N, C: chain ends. Non-standard residues stand in square brackets, D forms with d. No end group written: not given here. Tyr(Me) = O-methyl-tyrosine (Y-OMe, O-Me-Tyr), COc1ccc(C[C@H](N[*:1])C(=O)[*:2])cc1; Cys(β,β-pentamethylene) = O=C([C@@H](N[*:1])C1(S[*:3])CCCCC1)[*:2]; O‑Me‑Tyr = O-methyl-tyrosine, COc1ccc(C[C@H](N[*:1])C(=O)[*:2])cc1; Pen = CC(C)(S)[C@H](N)C(=O)O; code O = not defined here
PROPERTY LABEL: IC50 (nM)

binder="R[Cys(β,β-pentamethylene)]GHRGD[Tyr(Me)][code O]CR (disulfide 2-10; reading uncertain; also: printed as R(Pmc)GHRGD(O-Me-Tyr)OCR) [R(Pmc)GHRGD(O-Me-Tyr)OCR]" property_label=IC50 measured_value=7
binder="R[Cys(β,β-pentamethylene)]GHRGDWRCR (disulfide 2-10; not fully specified; printed as R(am-Pmp)GHRGDWRCR-1) [R(am-Pmp)GHRGDWRCR-1]" property_label=IC50 measured_value=60
binder="R[Pen]GHRGDWRCR (disulfide 2-10, also called 4Q) [R(Pen)GHRGDWRCR]" property_label=IC50 measured_value=800
binder="R[Cys(β,β-pentamethylene)]GHRGD[O‑Me‑Tyr]RCR (disulfide 2-10, also called R(Pmc)GHRGD(Y-OMe)RCR; 5O) [R(Pmc)GHRGD(O-Me-Tyr)RCR]" property_label=IC50 measured_value=60
binder=VRGDSPDG property_label=IC50 measured_value=270
